The measurements presented in this section are drawn from patent US20210395392A1.

Target: T1, Recombinant soluble extracellular domain of cynomolgus monkey MerTK (cynomolgus monkey, UniProt Q12866 21-505 (human entry))
T1 construct: SPR analyte; also called cMerTK; Cynomolgus MerTK
T1 chain: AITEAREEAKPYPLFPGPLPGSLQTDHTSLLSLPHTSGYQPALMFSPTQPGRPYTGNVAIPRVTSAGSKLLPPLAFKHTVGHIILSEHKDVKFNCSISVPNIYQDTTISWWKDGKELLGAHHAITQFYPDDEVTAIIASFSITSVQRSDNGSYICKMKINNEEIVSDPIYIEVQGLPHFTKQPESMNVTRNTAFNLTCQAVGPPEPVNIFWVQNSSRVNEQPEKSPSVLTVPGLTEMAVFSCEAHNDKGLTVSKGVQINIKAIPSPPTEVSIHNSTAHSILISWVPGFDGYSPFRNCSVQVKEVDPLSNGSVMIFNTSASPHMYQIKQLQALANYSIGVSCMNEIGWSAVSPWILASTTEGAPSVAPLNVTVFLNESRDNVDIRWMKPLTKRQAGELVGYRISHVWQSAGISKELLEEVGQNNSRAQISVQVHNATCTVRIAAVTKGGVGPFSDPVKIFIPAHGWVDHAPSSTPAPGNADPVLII
Experiment: SPR, mAb captured, soluble MerTK ECD as analyte, 37 C
Attribute: Kd
measure-name: Kd (nM)

[[record]]
binder = "HuMAb 4K10 (antibody, human IgG1, kappa, V domains shown, Human anti-hMerTK mAb, Bin 3) VH: QVQLQQWGAGLLKPSETLSLTCAVYGGSFSGYYWSWLRQPPGKGLEWIGEISHSGSTNYNPSLKSRVTISVDTSKNQFSLKLSSVTAADTAVYYCARALSRYWYFDLWGRGTLVTVSS VL: EIVLTQSPATLSLSPGERATLSCRASQSASNYLAWYQQKPGQAPRLLIYDASNRATGIPARFSGSGSGTDFTLTISSLEPEDFAVYYCYQRSQWPISFGQGTRLEIKR"
unit_label = "nM"
numeric_value = 31.3

[[record]]
binder = "Humanized mAb 4M60 (antibody, human IgG1, kappa, V domains shown, Humanized variant of moMAb 4E9, Bin 2) VH: QVQLVQSGSELKKPGASVKVSCKASGNTFTTYGMSWVRQAPGQGLEWMGWINNYSGVSTYADDFKGRFVFSLDTSVSTAYLQISSLKAEDTAVYYCARDYYGSGGWVFDYWGQGTTVTVSS VL: DVVMTQSPLSLPVTLGQPASISCKSSQSLLDSEGKTYLNWLQQRPGQSPRRLMYLVSKLDSGVPDRFSGSGSGTDFTLKISRVEAEDVGVYYCWQGTHFPRTFGGGTKVEIKR"
unit_label = "nM"
numeric_value = 42.5

[[record]]
binder = "Humanized MAb 2L105 (antibody, human IgG1, lambda, V domains shown, Humanized variant of moMAb 2D9, Bin 2) VH: QVTLKESGPVLVKPTETLTLTCTVSGISLSSFAISWIRQPPGKALEWLAVIWTGGGTDYNSALKSRLTISKDTSKSQVVLTMTNMDPVDTATYYCASHWYLDVWGQGTTVTVSS VL: QTVVTQEPSFSVSPGGTVTLTCRSSTGAVSTSNYANWVQQTPGQAPRGLIGGANSRAPGIPDRFSGSILGNKAALTITGAQADDESDYYCALWFSNHWVFGGGTKLTVLG"
unit_label = "nM"
numeric_value = 27

